Reference for the values: paper PMC12416549

# Subject of test: T1, TNFR1 (Homo sapiens, UniProt P19438)
# T1 chain: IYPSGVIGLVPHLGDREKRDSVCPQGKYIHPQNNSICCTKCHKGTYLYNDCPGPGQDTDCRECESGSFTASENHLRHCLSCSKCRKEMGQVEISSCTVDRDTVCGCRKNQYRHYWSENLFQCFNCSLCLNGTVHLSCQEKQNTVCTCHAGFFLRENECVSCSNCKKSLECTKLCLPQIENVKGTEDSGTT
# Assay info: yeast display SC50
Attribute measured: apparent Kd (screen) (nM)
Express it in nM; write the number only.

-- ask Data request, read-out apparent Kd (screen), for K66P (designed binder) MTLQELLREEALRRAEAEAFRYALELLAEKFPEQKEYLLDLAEEIESQIRSLSGVDVEDVRKFLDPEWAWVKELLAEHPAELAEVEAARAARLAELRAEVEAKVAA
-- reply 3.99

-- ask Data request, read-out apparent Kd (screen), for L82E (designed binder) MTLQELLREEALRRAEAEAFRYALELLAEKFPEQKEYLLDLAEEIESQIRSLSGVDVEDVRKFLDKEWAWVKELLAEHPAEEAEVEAARAARLAELRAEVEAKVAA
-- reply 2.73

-- ask Data request, read-out apparent Kd (screen), for T2Y (designed binder) MYLQELLREEALRRAEAEAFRYALELLAEKFPEQKEYLLDLAEEIESQIRSLSGVDVEDVRKFLDKEWAWVKELLAEHPAELAEVEAARAARLAELRAEVEAKVAA
-- reply 0.869

-- ask Data request, read-out apparent Kd (screen), for P79W (designed binder) MTLQELLREEALRRAEAEAFRYALELLAEKFPEQKEYLLDLAEEIESQIRSLSGVDVEDVRKFLDKEWAWVKELLAEHWAELAEVEAARAARLAELRAEVEAKVAA
-- reply 0.49

-- ask Data request, read-out apparent Kd (screen), for G54L (designed binder) MTLQELLREEALRRAEAEAFRYALELLAEKFPEQKEYLLDLAEEIESQIRSLSLVDVEDVRKFLDKEWAWVKELLAEHPAELAEVEAARAARLAELRAEVEAKVAA
-- reply 16.7

-- ask Data request, read-out apparent Kd (screen), for E10L (designed binder) MTLQELLRELALRRAEAEAFRYALELLAEKFPEQKEYLLDLAEEIESQIRSLSGVDVEDVRKFLDKEWAWVKELLAEHPAELAEVEAARAARLAELRAEVEAKVAA
-- reply 0.539

-- ask Data request, read-out apparent Kd (screen), for L75I (designed binder) MTLQELLREEALRRAEAEAFRYALELLAEKFPEQKEYLLDLAEEIESQIRSLSGVDVEDVRKFLDKEWAWVKELIAEHPAELAEVEAARAARLAELRAEVEAKVAA
-- reply 0.79

-- ask Data request, read-out apparent Kd (screen), for A76F (designed binder) MTLQELLREEALRRAEAEAFRYALELLAEKFPEQKEYLLDLAEEIESQIRSLSGVDVEDVRKFLDKEWAWVKELLFEHPAELAEVEAARAARLAELRAEVEAKVAA
-- reply 0.446
